System: Digitaria ciliaris
Method notes: Herbicidal activity against Digitaria ciliaris at 4 kg/ha treated as soil application at pre-emergence after 3 weeks
Assay type: functional
Reported Activity by item:
Quantity: Activity (%)

> print(dat)
                                    molecule  quantity  measured.result
 1  CCC(=O)N(Cc1ccccc1)c1nc(C)nc(C(F)(F)F)n1  Activity               91
 2       CCCc1nc(C)nc(N(C=O)Cc2ccc(Cl)cc2)n1  Activity               91
 3      Cc1nc(N(C=O)Cc2ccccc2)nc(C(F)(F)F)n1  Activity               76
 4  Cc1nc(N(C=O)Cc2ccc(Cl)cc2)nc(C(F)(F)C(F)(F)F)n1  Activity              100
 5  Cc1nc(N(C=O)Cc2ccc(Cl)cc2)nc(C(F)(F)F)n1  Activity               91
 6           Cc1nc(NCc2ccccc2)nc(C(F)(F)F)n1  Activity               91
 7       Cc1nc(NCc2ccc(Cl)cc2)nc(C(F)(F)F)n1  Activity              100
 8   CC(=O)N(Cc1ccccc1)c1nc(C)nc(C(F)(F)F)n1  Activity                1
 9           CCNc1nc(Cl)nc(NCC)n1 [SIMAZINE]  Activity               51
10     Cc1nc(C(F)F)nc(N(C=O)Cc2ccc(Cl)cc2)n1  Activity               91
11  Cc1nc(N(Cc2ccccc2)C(=O)C(C)(C)C)nc(C(F)(F)F)n1  Activity               51
12  CCCC(=O)N(Cc1ccccc1)c1nc(C)nc(C(F)(F)F)n1  Activity               51
